assayedTarget: wild type human RORγt ligand binding domain (RORyt LBD) (Homo sapiens, UniProt P51449)
Construct: His-tag (N); TurboTEV protease cleavage site (ENLYFQG) (N)
Sequence (P51449 258-518): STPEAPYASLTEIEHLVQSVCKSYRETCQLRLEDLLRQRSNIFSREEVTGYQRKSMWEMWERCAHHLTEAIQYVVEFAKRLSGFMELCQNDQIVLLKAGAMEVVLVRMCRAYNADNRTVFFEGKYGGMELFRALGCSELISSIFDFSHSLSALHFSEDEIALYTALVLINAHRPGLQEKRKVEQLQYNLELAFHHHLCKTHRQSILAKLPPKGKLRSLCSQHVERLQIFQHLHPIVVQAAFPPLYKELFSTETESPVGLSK
protocolNotes: RORγt ThermoFluor assay (thermal shift, binding affinity KD)
Please use condition met for Kd under 5 nM and condition not met for everything else, ties included.

>  <compound>
Cc1nc2ccc(C(O)(c3cnnn3C)c3cnc(C)n3C)cc2c(Cl)c1Cc1ccc(C(F)(F)F)cc1 (stereo not drawn) [Example 29a]

>  <assayedTarget>
wild type human RORγt ligand binding domain (RORyt LBD) (Homo sapiens, UniProt P51449)

>  <discreteLabel>
condition met

$$$$
>  <compound>
COc1nc2ccc(C(O)(c3ccccn3)c3cncn3C)cc2c(Cl)c1Cc1ccc(S(C)(=O)=O)cc1 (single isomer, unassigned) [Example 58c]

>  <assayedTarget>
wild type human RORγt ligand binding domain (RORyt LBD) (Homo sapiens, UniProt P51449)

>  <discreteLabel>
condition not met

$$$$
>  <compound>
COc1nc2ccc(C(O)(c3cncn3C)c3cnnn3C)cc2c(Cl)c1Cc1ccc(C(F)(F)F)cc1 (single isomer, unassigned) [Example 89c]

>  <assayedTarget>
wild type human RORγt ligand binding domain (RORyt LBD) (Homo sapiens, UniProt P51449)

>  <discreteLabel>
condition met

$$$$
>  <compound>
COc1c(Cc2ccccc2)c(C(F)(F)F)nc2ccc(C(O)(c3ccc(C(F)(F)F)nc3)c3cncn3C)cc12 (stereo not drawn) [Example 106a]

>  <assayedTarget>
wild type human RORγt ligand binding domain (RORyt LBD) (Homo sapiens, UniProt P51449)

>  <discreteLabel>
condition not met

$$$$
>  <compound>
Cc1ccc(C(O)(c2ccc3nc(N4CC(F)(F)C4)c(Cc4ccc(C(F)(F)F)cc4)c(Cl)c3c2)c2cnnn2C)c(C)n1 (single isomer, unassigned) [Example 148b]

>  <assayedTarget>
wild type human RORγt ligand binding domain (RORyt LBD) (Homo sapiens, UniProt P51449)

>  <discreteLabel>
condition not met

$$$$

---

assayedTarget: wild type human RORγt LBD (Homo sapiens, UniProt P51449)
Construct: expressed in transfected cells; host or cells: HEK293T
protocolNotes: RORγt (LBD) Reporter Assay (GAL4-luciferase, HEK293T cells)
Assay type: cell-based
details: HEK-293T, read-out: RORγt (LBD) Reporter Assay, % inhibition @ 6 µM, 6 µM compound concentration
Listed here: items and their measured inhibition at 6 µM.

>  <molecule>
COc1nc2ccc(C(O)(c3cccnc3)c3cccc(F)c3)cc2c(Cl)c1Cc1ccc(-n2cccn2)cc1 (stereo not shown)

>  <endpointUnit>
%

>  <inhibition at 6 µM>
99

$$$$
>  <molecule>
Cn1cncc1C(O)(c1ccc(C(F)(F)F)nc1)c1ccc2nc(C(F)(F)F)c(Cc3ccccc3)c(C#N)c2c1 (stereo not shown) [Example 108a]

>  <endpointUnit>
%

>  <inhibition at 6 µM>
90

$$$$
>  <molecule>
CCc1nc2ccc(C(O)(c3ccc(C)nc3C)c3cnnn3C)cc2c(Cl)c1Cc1ccc(C(F)(F)F)cc1 (stereo not shown) [Example 23a]

>  <endpointUnit>
%

>  <inhibition at 6 µM>
99

$$$$
>  <molecule>
COc1nc2ccc(C(O)(c3ccc(Cl)cc3)c3cncn3C)cc2c(C#N)c1Cc1ccc(C(F)(F)F)cc1 (single isomer, unassigned) [Example 55b]

>  <endpointUnit>
%

>  <inhibition at 6 µM>
96

$$$$
>  <molecule>
COc1nc2ccc(C(O)(c3ccc(C)nc3C)c3cncn3C)cc2c(Cl)c1Cc1ccc(C(F)(F)F)cc1 (single isomer, unassigned) [Example 88b]

>  <endpointUnit>
%

>  <inhibition at 6 µM>
95

$$$$
>  <molecule>
COc1nc2ccc(C(O)(c3ccc(C)nc3C)c3cnnn3C)cc2c(Cl)c1Cc1ccc(C(F)(F)F)nc1 (single isomer, unassigned) [Example 40b]

>  <endpointUnit>
%

>  <inhibition at 6 µM>
88

$$$$
>  <molecule>
Cn1cc(-c2nc3ccc(C(O)(c4ccc(C(F)(F)F)nc4)c4cncn4C)cc3c(C#N)c2Cc2ccccc2)cn1 (stereo not shown) [Example 112a]

>  <endpointUnit>
%

>  <inhibition at 6 µM>
91

$$$$

Reference source: patent EP3057951B1
